Data origin: PubChem BioAssay (NCI)

Tested on: MDA-MB-231 breast
assayMethodText: NCI tumour cell line growth inhibition, 48 h
parameterMeasured: TGI (µM)
Numbers only, in µM.

Look over these answered cases.
Qu. Hello, I am looking for reported TGI with MDA-MB-231 breast for CCNCCNc1cc(C2CCCC2)c(C#N)c2nc3ccccc3n12 . Could you help?
Ans. 5.27

Qu. Hello, I am looking for reported TGI with MDA-MB-231 breast for O=C1c2ccc3ccccc3c2CCC1N1CCCCC1 (stereo not given) . Could you help?
Ans. 30.6

Qu. Hello, I am looking for reported TGI with MDA-MB-231 breast for COC(=O)/C(Br)=C/c1c[nH]c2ccc(Br)cc12 . Could you help?
Ans. 30.4

Qu. Hello, I am looking for reported TGI with MDA-MB-231 breast for COc1ccc(-n2nnnc2C2(Nc3ccccc3)CCN(Cc3ccccc3)CC2)cc1 . Could you help?
Ans. 32.3

With those in mind, consider the next compound.
Qu. Hello, I am looking for reported TGI with MDA-MB-231 breast for CC(=O)OCC1OC(OC2CC3C(C)(C)C(=O)CC[C@]3(C)C3CC[C@]45C[C@]4(CCC5[C@@H](C)CC(O)C(O)C(C)(C)O)[C@]23C)C(O)C(O)C1O (stereo not given in full) . Could you help?
Ans. 19.5

----------
Please respond with reported TGI for every item in the list.
Test system: MDA-MB-435
assayMethodText: NCI tumour cell line growth inhibition, 48 h
Answers are plain numbers, in µM.

Look over these answered cases.
Qu. If you can, please state the reported TGI value of CC(C)(Cc1ccccc1)Cc1cc(O)ccc1O .
Ans. 49.2

Qu. If you can, please state the reported TGI value of O=C1/C(=C/c2ccc(O)cc2)CCc2ccccc21 .
Ans. 52.8

Kindly give each listed record's TGI.
1. CC(=O)/C=C/c1ccc(N(C)Cc2ccc(C(C)(C)C)cc2)cc1
2. O=C1/C(=c2\c3ccccc3n3c(=O)c4ccccc4nc23)Nc2ccccc21
3. COc1cccc(-c2cc(NCc3ccc4c(c3)OCO4)nc(N)n2)c1

Ans.
1: 322; 2: 36.8; 3: 0.0521

----------
Test system: CAKI-1 renal
assayMethodText: NCI tumour cell line growth inhibition, 48 h
parameterMeasured: TGI

Look over these answered cases.
Qu. If you can, please state the reported TGI value of NC(CCCNCc1ccccc1O)C(=O)O (stereo not given) .
Ans. > 100 µM

Qu. If you can, please state the reported TGI value of Nc1nn(C(=O)Nc2ccc(Cc3ccccc3)cc2)c2ccccc12 .
Ans. 58 µM

Qu. If you can, please state the reported TGI value of Cc1cc(Cl)ccc1Nc1nc(C(F)(F)F)ccc1C(=O)N/N=C/c1ccc(F)cc1 .
Ans. 6.55 µM

Qu. If you can, please state the reported TGI value of Cc1ccc(S(=O)(=O)C2=C3C(=C(c4ccccc4)c4ccccc43)CN(S(=O)(=O)c3ccc(C)cc3)C2)cc1 .
Ans. > 100 µM

With those in mind, consider the next compound.
Qu. If you can, please state the reported TGI value of Cc1cc(NC(=O)C(=O)Cc2nc3ccccc3s2)ccc1Cl .
Ans. > 100 µM

----------
System: HT29 colon
assayMethodText: NCI tumour cell line growth inhibition, 48 h
Rule: TGI of 20 µM or more gives condition met; anything lower gives condition not met.

Qu. Threshold query (TGI >= 20 µM) on COC(=O)/C(Cl)=C1/CC1COCc1ccccc1 (centres undefined)
Ans. condition met

Qu. Threshold query (TGI >= 20 µM) on Nc1nc(Cl)cc(NCC2(CO)CCC(OCc3ccccc3)C2)n1 (centres undefined)
Ans. condition met

Qu. Threshold query (TGI >= 20 µM) on COc1ccc(C2C3=C(CCCC3=O)N(c3ccccc3)C3=C2C(=O)CCC3)cc1
Ans. condition met

Next:
Qu. Threshold query (TGI >= 20 µM) on CC(=O)OCC1OC(OC2CC3C(C)(C)C(=O)CC[C@]3(C)C3CC[C@]45C[C@]4(CCC5[C@@H](C)CC(O)C(O)C(C)(C)O)[C@]23C)C(O)C(O)C1O (some centres undefined)
Ans. condition not met

Qu. Threshold query (TGI >= 20 µM) on COc1ccc2cc(C(=O)/C=C/c3ccccc3OC)ccc2c1
Ans. condition met

----------
System: HL-60(TB) leukemia
assayMethodText: NCI tumour cell line growth inhibition, 48 h; in the data active means GI50 below about 0.43 µM; inactive means the rest
The reply should name one outcome from yes (1) = active, no (0) = inactive

Consider the following illustrative entries.
Qu. Please state the recorded outcome for this compound: C(#Cc1ccccc1C#Cc1ccccn1)c1ccc(OCCCCCCOc2ccc(C#Cc3ccccc3C#Cc3ccccn3)cc2)cc1
Ans. yes (1)

Qu. Please state the recorded outcome for this compound: COc1cc2c3c(n(CCCN4CCOCC4)c(=O)c2cc1OC)-c1cc2c(cc1C3=O)OCO2
Ans. no (0)

Qu. Please state the recorded outcome for this compound: Cn1cc(-c2nc(-c3cn(C)c4ncccc34)cs2)c2cc(F)ccc21
Ans. no (0)

Qu. Please state the recorded outcome for this compound: COc1ccc2c(c1)CC[C@@H]1[C@@H]2CC[C@]2(C)c3c(cc(C(=O)c4ccccc4)c4sccc34)C[C@@H]12
Ans. no (0)

Next:
Qu. Please state the recorded outcome for this compound: CCOC(=O)C1=C(N)Oc2cc(OC)ccc2C1c1ccc(F)c(F)c1 (stereo unspecified)
Ans. yes (1)

Qu. Please state the recorded outcome for this compound: COc1ccc(/C=C2\CCCC3=C2N=C2SC=NN2C3c2ccc(OC)c(OC)c2)cc1OC (stereo unspecified)
Ans. no (0)

Qu. Please state the recorded outcome for this compound: Cc1ccc(S(=O)(=O)C2=C3C(=C(c4ccccc4)c4ccccc43)CN(S(=O)(=O)c3ccc(C)cc3)C2)cc1
Ans. no (0)

Qu. Please state the recorded outcome for this compound: O=C(CN/C=C\C(=O)c1cc(Cl)ccc1Cl)c1ccccc1
Ans. no (0)

----------
Please respond with reported TGI for every item in the list.
Test system: SF-295 CNS
assayMethodText: NCI tumour cell line growth inhibition, 48 h
Give bare numbers, in µM.

Look over these answered cases.
Qu. Hello, I am looking for reported TGI with SF-295 CNS for COC(=O)/C(Br)=C/c1c[nH]c2ccc(Br)cc12 . Could you help?
Ans. 27.3

Qu. Hello, I am looking for reported TGI with SF-295 CNS for CC(=O)OCC1OC(OC2CC3C(C)(C)C(=O)CC[C@]3(C)C3CC[C@]45C[C@]4(CCC5[C@@H](C)CC(O)C(O)C(C)(C)O)[C@]23C)C(O)C(O)C1O (stereo partly drawn) . Could you help?
Ans. 27.1

Qu. Hello, I am looking for reported TGI with SF-295 CNS for CCN1CCN(Cc2ccc3cc(C(=O)Nc4cc(NC(=O)c5ccc6c(c5)OCCO6)ccc4F)ccc3n2)CC1 . Could you help?
Ans. 2.92

Kindly give each listed record's TGI.
1. CC1OC2OC3C(OCC(O)C3O)OC(=O)[C@]34CCC(C)(C)CC3C3=CCC5[C@@]6(C)C[C@H](O)[C@H](OC7OC(CO)C(O)C(O)C7OC7OC(COC(=O)CC(C)(O)CC(=O)OC1C(O)C2O)C(O)C(O)C7O)[C@@](C)(CO)C6CC[C@@]5(C)[C@]3(C)CC4 (stereo partly drawn)
2. N=c1c2ccccc2nc2oc3ccc(Cl)cc3n12
3. Cc1ccc(S(=O)(=O)C2=C3C(=C(c4ccccc4)c4ccccc43)CN(S(=O)(=O)c3ccc(C)cc3)C2)cc1
4. COc1ccc2cc(C(=O)/C=C/c3ccccc3OC)ccc2c1
5. C/C(=C\c1ccc2c(c1)OCO2)[N+](=O)[O-]
6. CN(C)CCOc1cccc(NC2=C(Cl)C(=O)C(Nc3cccc(OCCN(C)C)c3)=C(Cl)C2=O)c1
7. Cc1cccc2c(=O)c3c(sc12)c(NCCN)nc1ccccc13
8. O=C(Nc1cccc(-n2cc(-c3ccncc3)c(-c3ccc(O)c(Cl)c3)n2)c1)Nc1ccc(Cl)c(C(F)(F)F)c1

Ans.
3.1
35.6
57
7.2
6.27
5.92
1.7
5.12

Kindly give each listed record's TGI.
1. CCCNNC(=O)c1ccc(CNC(=O)/C=C/c2ccccc2)cc1
2. CCOCC[P+](c1ccccc1)(c1ccccc1)c1ccccc1
3. CC1(C)CC[C@]2(C(=O)O)CC[C@]3(C)C(=CC[C@@H]4[C@@]5(C)CC[C@@H]6OC(C)(C)OC[C@@]6(C)[C@@H]5CC[C@]43C)[C@H]2C1
4. C(#Cc1ccccc1C#Cc1ccccn1)c1ccc(OCCCCCCOc2ccc(C#Cc3ccccc3C#Cc3ccccn3)cc2)cc1

Ans.
1: 0.596; 2: 78.6; 3: 27.6; 4: 5.08

----------
Please respond with reported TGI for every item in the list.
Tested on: LOX IMVI melanoma
assayMethodText: NCI tumour cell line growth inhibition, 48 h
One number for each entry, in µM.

Kindly give each listed record's TGI.
1. COc1ccc(/C=C/C(=O)c2ccc(NC(=O)CSc3nnc(-c4cc(OC)c(OC)c(OC)c4)o3)cc2)cc1
2. O=C(Nc1cccc(-n2cc(-c3ccncc3)c(-c3ccc(O)c(Cl)c3)n2)c1)Nc1ccc(Cl)c(C(F)(F)F)c1
3. CC[C@]12C=CCN3CCC4(c5cc(N=Nc6ccc([N+](=O)[O-])cc6)c(OC)cc5N(C)[C@H]4[C@@](O)(C(=O)OC)[C@@H]1OC(C)=O)[C@@H]32 (stereo partly specified)
4. O=C1C=CC(=O)N1CCCCCCCCCCN1C(=O)C=CC1=O
5. CCCCN1C(=O)C[C@H]2[C@@H]3CCc4cc(OCCN5CCCC5)ccc4[C@H]3CC[C@]2(C)C1=O
6. O=C1/C(=C/c2ccc(O)cc2)CCc2ccccc21
7. Nc1nc(Cl)cc(NCC2(CO)CCC(OCc3ccccc3)C2)n1 (stereo unspecified)
8. O=C(Nc1cc(Cl)cc(Cl)c1)c1ccc(NC2=C(Cl)C(=O)N(Cc3ccccc3)C2=O)cc1

Ans.
1. 1.28
2. 3.21
3. 47.3
4. 24.4
5. 10.8
6. 49.2
7. 46.4
8. 5.86

Qu. If you can, please state the reported TGI value of O=C(NO)c1ccc(OCc2ccccc2)cc1 .
Ans. 55.8
